System: M14 melanoma
Test: NCI tumour cell line growth inhibition, 48 h
molecules and their reported TGI

Value of TGI reported for the molecule Clc1ccc(-c2ccc(-c3nn4c(CNc5ccccc5)nnc4s3)o2)c(Cl)c1 is > 100 µM

Value of TGI reported for the molecule CN1CC[C@]2(c3cccc(O)c3)CC(=O)/C(=C/c3ccc(Cl)c(Cl)c3)[C@@H]1C2 is 3.08 µM

Value of TGI reported for the molecule CCOC(=O)C(C)(C)C(O)C(C)C (stereo not given) is > 100 µM

Value of TGI reported for the molecule Br/C(=N\Nc1nn[nH]n1)c1ccncc1 is > 100 µM

Value of TGI reported for the molecule O=c1oc2ccc(-n3c(=O)c4ccccc4c4ccccc4c3=O)cc2c2ccccc12 is > 100 µM

More entries:
Value of TGI reported for the molecule CCCCCCCCCCCCOC1C(C(CC(=O)N2CCN(c3cccc(C(F)(F)F)c3)CC2)NS(=O)(=O)c2cc(Cl)cc(Cl)c2)OC2OC(C)(C)OC21 (stereo not given) is > 100 µM

Value of TGI reported for the molecule CCOC(=O)C(NCc1cccc(C(F)(F)F)c1)(NC(=O)CC)C(F)(F)F (stereo not given) is > 100 µM

Value of TGI reported for the molecule CCOC(=O)c1ccc(Nc2nc3ccccc3nc2C(=O)OCC)cc1 is > 100 µM
